Target: the molecule itself
Assay: native mass spectrometry; KD compared to the wild type IgG1 CH2-CH3 fragment
// values below are reported fold-difference
Give the value in fold but do not write fold after it.

// worked examples, fold-difference included
CH2-CH3 fragment of human IgG1 with T350I-K370T-F405L (other, UniProt P01857-1 224-330, looked up, name in EU numbering, range 341-447; also called G1-ITL; not shown: N-terminal 6 amino acid His tag) GQPREPQVYILPPSRDELTKNQVSLTCLVTGFYPSDIAVEWESNGQPENNYKTTPPVLDSDGSFLLYSKLTVDKSRWQQGNVFSCSVMHEALHNHYTQKSLSLSPGK | 0.003
CH2-CH3 fragment of human IgG1 with K370T (other, UniProt P01857-1 224-330, looked up, name in EU numbering, range 341-447; As m1, with the mutation; also called G1-K370T; not shown: N-terminal 6 amino acid His tag) GQPREPQVYTLPPSRDELTKNQVSLTCLVTGFYPSDIAVEWESNGQPENNYKTTPPVLDSDGSFFLYSKLTVDKSRWQQGNVFSCSVMHEALHNHYTQKSLSLSPGK | 0.07
CH2-CH3 fragment of human IgG1 with T350I (other, UniProt P01857-1 224-330, looked up, name in EU numbering, range 341-447; As m1, with the mutation; also called G1-T350I; not shown: N-terminal 6 amino acid His tag) GQPREPQVYILPPSRDELTKNQVSLTCLVKGFYPSDIAVEWESNGQPENNYKTTPPVLDSDGSFFLYSKLTVDKSRWQQGNVFSCSVMHEALHNHYTQKSLSLSPGK | 0.4

// moving on: another record for fold-difference
In: In one line, give reported fold-difference of the entry CH2-CH3 fragment of human IgG1 with K409R (other, UniProt P01857-1 224-330, looked up, name in EU numbering, range 341-447; As m1, with the mutation; also called G1-K409R; not shown: N-terminal 6 amino acid His tag) GQPREPQVYTLPPSRDELTKNQVSLTCLVKGFYPSDIAVEWESNGQPENNYKTTPPVLDSDGSFFLYSRLTVDKSRWQQGNVFSCSVMHEALHNHYTQKSLSLSPGK .
Out: 0.03
